test: Brain-to-blood drug concentration ratio of mice; format: in vivo; settings: mouse, brain, 2 mg/kg IV, 1 h, read-out: Brain drug concentration
endpoint: concentration at 1 h (ng/mL)
Express your answer in ng/mL, writing the number without its unit.

structure.as.smiles	endpoint	units.symbol	value.reported
O=C(N[C@@H]1CCCC[C@H]1N1Cc2ccc(-c3nnc(C(F)F)o3)cc2S1(=O)=O)C(F)F	concentration at 1 h	ng/mL	268

Exercise: Quick check: concentration at 1 h of "CC(F)(F)C(=O)N[C@@H]1CCCC[C@H]1N1Cc2ccc(-c3nnc(C(F)F)o3)cc2S1(=O)=O" ?
Solution: 285

====

concentration at 2 h: recorded values
test: Brain-to-blood drug concentration ratio of mice; assay type: in vivo; conditions: mouse, brain, 5 mg/kg PO, 2 h, read-out: Brain drug concentration
Only the number, expressed in ng/mL, is required.

A selection of reference data follows.
structure.as.smiles	units.symbol	concentration at 2 h
O=C(N[C@@H]1COCC[C@H]1N1Cc2ccc(-c3nnc(C(F)F)o3)cc2S1(=O)=O)C(F)F	ng/mL	174
O=S1(=O)c2cc(-c3nnc(C(F)F)o3)ccc2CN1[C@H](c1ccccn1)[C@H](O)c1ccc(F)cn1	ng/mL	298
CN(C)C(=O)N[C@@H]1CCCC[C@H]1N1Cc2ccc(-c3nnc(C(F)F)o3)cc2S1(=O)=O	ng/mL	27

Next item in the queue.
Exercise: Which measured concentration at 2 h value corresponds to "O=C(N[C@@H]1CCOC[C@H]1N1Cc2ccc(-c3nnc(C(F)F)o3)cc2S1(=O)=O)C(F)F" ?
Solution: 42.8
